B1: TPR t1 (parent)
chain: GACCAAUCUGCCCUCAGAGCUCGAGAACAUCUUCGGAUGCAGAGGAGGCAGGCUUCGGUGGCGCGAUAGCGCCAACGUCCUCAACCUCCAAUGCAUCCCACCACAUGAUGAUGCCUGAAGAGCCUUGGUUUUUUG

Variants of: B1
Assay: polymerase ribozyme fitness, log enrichment relative to wild type (log ratio); higher = more active; in vitro selection for triplet polymerase activity
Threshold check on polymerase ribozyme fitness (log ratio): at or above -2 gives MET, strictly below gives NOT MET.

Worked examples, 3 variants total:
{"VARIANT LABEL": "A46U C56A C115U", "ASSIGNED LABEL": "NOT MET"}
{"VARIANT LABEL": "G63U G77C C86G", "ASSIGNED LABEL": "NOT MET"}
{"VARIANT LABEL": "U9G G10C C11A C15A A37G U78C C85U A95U C123U", "ASSIGNED LABEL": "NOT MET"}

# input Confirm if polymerase ribozyme fitness (log ratio) reported for the variant G19A U96A C114A G127U is -2 or above.
# output NOT MET

# input Confirm if polymerase ribozyme fitness (log ratio) reported for the variant C13A C89G C97U is -2 or above.
# output NOT MET

# input Confirm if polymerase ribozyme fitness (log ratio) reported for the variant C3U U33G C53U U54A C73U U87A C124A is -2 or above.
# output NOT MET

# input Confirm if polymerase ribozyme fitness (log ratio) reported for the variant A37U G120A is -2 or above.
# output MET

# input Confirm if polymerase ribozyme fitness (log ratio) reported for the variant C8A G69A G120C is -2 or above.
# output MET

# input Confirm if polymerase ribozyme fitness (log ratio) reported for the variant C79G A84C C104A is -2 or above.
# output NOT MET

# input Confirm if polymerase ribozyme fitness (log ratio) reported for the variant C86U G93A C101G G122A is -2 or above.
# output NOT MET

# input Confirm if polymerase ribozyme fitness (log ratio) reported for the variant A46G U112A is -2 or above.
# output MET

# input Confirm if polymerase ribozyme fitness (log ratio) reported for the variant G36C C88A is -2 or above.
# output NOT MET

# input Confirm if polymerase ribozyme fitness (log ratio) reported for the variant A37U G48A G61C A105U A111U is -2 or above.
# output NOT MET
